These entries and their values trace back to the RNAGym collection of RNA variant scans (doi:10.7554/elife.80360).

B1: CPEB3 Ribozyme (parent)
chain: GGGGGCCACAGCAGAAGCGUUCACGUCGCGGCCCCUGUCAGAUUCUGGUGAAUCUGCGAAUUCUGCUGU

Variants of: B1
Experiment: self-cleavage, relative activity (ratio to wild type); higher = more cleavage; co-transcriptional
value.kind: self-cleavage
Please respond with just the number, no unit label.

Worked examples, 10 variants total:
1. GGCGGCCACAGCAGAAGCGUUCACGUCGCGGCCCCUGUCAGAUUCUGGUGAAUCUGCAAAUUCUGCUGU : 0.0258
2. GGGGGCCACAGCAGAAGCGUGCACGACGCGGCCCCUGUCAGAUUCUGGUGAAUCUGCGAAUUCUGCUGU : 0.3
3. GGGGACCACAGCAGAAGCGUUCACGUCGCGGCCCCUGUCAGAUUCUGGUGAAUCUUCGAAUUCUGCUGU : 0.772
4. GGGGGCCACAGCAGAAGCGUUCACGUCGCGGCCCCUGUCAUAUUCUGGUGAAUCUGCGAAGUCUGCUGU : 0.314
5. GGGGGCCACAGCAGAAGCGUUCACGUCGCGGCCCCGGUCAGAUUCUGGUGAAUCUGCGAAUCCUGCUGU : 0.21
6. GGGGGCCACAGCAGAAGCGUUCACGUCGCGGCCCCUGUCAGAUUCUGCUGAAUCUGAGAAUUCUGCUGU : 0.309
7. GGGGGCCACAGCAGAAGCGUUCACGUCGCGGCCCCUAUCAGAUUGUGGUGAAUCUGCGAAUUCUGCUGU : 0.281
8. GGGGGCCACAGCCGAAGCGUUCACGUCGCGGCCCCUGUCAGAUUCUGGCGAAUCUGCGAAUUCUGCUGU : 0.842
9. GGGGGCCACAGCAGAAGCGUUCACGUCGCGGGGCCUGUCAGAUUCUGGUGAAUCUGCGAAUUCUGCUGU : 0.179
10. GGGGGCCACAGCAGAAGCGUUCACGUCGCGGCCCCUAUCAGAUUCUGUUGAAUCUGCGAAUUCUGCUGU : 0.251

[Q] Which self-cleavage is reported for this variant? "GGGGGCCACAGCAGAAGCAUUCACGUCGCGGCCCCUGUCAGAUUCUGGUGAAACUGCGAAUUCUGCUGU"
[A] 0.174

[Q] Note, next up: "GGGGGCCACAGCAGAAGCGUUCACGUCGCGGCCCCUGUCAGAUUCUGGUGUAUCUGCGAAUUCUGCAGU"
[A] 0.976

[Q] Note, next up: "GGGGGCCACAGCAAAAGCGUUCACGUCCCGGCCCCUGUCAGAUUCUGGUGAAUCUGCGAAUUCUGCUGU"
[A] 0.146

[Q] Note, next up: "GGGGGCCACACCAGAACCGUUCACGUCGCGGCCCCUGUCAGAUUCUGGUGAAUCUGCGAAUUCUGCUGU"
[A] 0.143

[Q] Note, next up: "GGGGUCCACAGCAGAAGCGUUCACGUCGCGGCCCCUGUCAGAUUAUGGUGAAUCUGCGAAUUCUGCUGU"
[A] 0.208

[Q] Note, next up: "GGGGGCCACAGCAGAAGCGUUCACGUCGCGGCCCCUGUCAGAUUCUGGUGAAUCUGCAAAUUCUACUGU"
[A] 0.901

[Q] Note, next up: "GGGGGCCACAGCAGAAGCGUUCACGUCGCGGCCCCUGUCAGAUUGCGGUGAAUCUGCGAAUUCUGCUGU"
[A] 0.999

[Q] Note, next up: "GGGGGCCACAGCAGAAGCGUUCAAGUCCCGGCCCCUGUCAGAUUCUGGUGAAUCUGCGAAUUCUGCUGU"
[A] 0.129
